# growth, % of control at 10 µM listing for each entry below
system: U-251; test: Growth inhibition of human U251 cells at 10 uM after 48 hrs by sulforhodamine B assay; format: functional; conditions: U-251, 48 h, values are per cent of control

smiles | subject of test | unit descriptor | growth, % of control at 10 µM
N#C/C(=C\c1cc(F)cc(F)c1)c1ccc2c(c1)OCO2 | U-251 | % | 108
COc1ccc(/C=C(\C#N)c2ccc3c(c2)OCO3)cc1 | U-251 | % | 16.5
COc1cc(/C(C#N)=C/c2ccc3c(c2)OCCO3)cc(OC)c1OC | U-251 | % | 8.1
N#C/C(=C\c1cc(Br)cc(Br)c1)c1ccc2c(c1)OCO2 | U-251 | % | 99.9
COc1ccc(/C=C(\C#N)c2ccc3c(c2)OCO3)c(Cl)c1OC | U-251 | % | 95.5
COc1ccc(/C(C#N)=C/c2ccc3c(c2)OCO3)cc1 | U-251 | % | 80.9
